Provenance of the data: paper PMC10674446

Test system: MCF7 breast cancer
run description: MTT cell viability assay, MCF7
Type: cell-based, human
condition parameters: Homo sapiens, MCF7; 48 h treatment period; mean ± SD, n = 3; read-out: Anticancer Activity IC50, MCF-7
// reported pIC50 per item
Field pIC50 (float): negative decimal logarithm of the concentration in molar.

Task: May I ask what pIC50 has been recorded for c1ccc(CN2c3cccnc3Sc3cccnc32)c(CN2c3cccnc3Sc3cccnc32)c1 ?
Result: 5.15

Task: Please look up its pIC50: COc1cccc2c1C(=O)c1c(O)c3c(c(O)c1C2=O)C[C@@](O)(C(=O)CO)C[C@@H]3O[C@H]1C[C@H](N)[C@H](O)[C@H](C)O1 [Doxorubicin, reference compound]
Result: 4.61

Task: Which value of pIC50 has been reported for c1ccc(CN2c3ccncc3Sc3ccncc32)c(CN2c3ccncc3Sc3ccncc32)c1 in the records?
Result: 5.50

Task: What does the data say about its pIC50? Entry: c1ccc(CN2c3ccncc3Sc3ncccc32)c(CN2c3ccncc3Sc3ncccc32)c1
Result: 4.47

Task: Value lookup for pIC50; key = c1cnc2c(c1)Sc1ncccc1N2Cc1ccc(CN2c3cccnc3Sc3cccnc32)cc1
Result: 4.80

Next:
Task: I have this compound here, c1cc(CN2c3ccncc3Sc3ccncc32)nc(CN2c3ccncc3Sc3ccncc32)c1 , and I need its recorded pIC50.
Result: 4.93

Task: What does the record list as pIC50 for c1ccc(CN2c3cnccc3Sc3cccnc32)c(CN2c3cnccc3Sc3cccnc32)c1 ?
Result: 5.02

Task: pIC50 for c1cc(CN2c3cnccc3Sc3cccnc32)nc(CN2c3cnccc3Sc3cccnc32)c1 ?
Result: 5.00

Task: Give its pIC50 value. Item: c1cc(CN2c3cccnc3Sc3cccnc32)nc(CN2c3cccnc3Sc3cccnc32)c1
Result: 6.12
